- Tested on: Type III protein secretion of the chimeric SopE‘-’Bla polypeptide (SPI1 type III protein secretion system)
- ASSAY DETAILS: Primary assay: Type III protein secretion of the chimeric SopE'-'Bla polypeptide by Salmonella enterica
- Type: cell-based
- CONDITION NOTES: read-out: SopE IC50(μM)
Examples of compounds with documented IC50 follow.
Give your result in µM as a bare value.

[[record]]
compound = "CCc1ccc(/C=C(/NC(=O)c2ccc(-c3ccccc3)cc2)C(=O)NC(C(=O)O)C(C)(C)S)cc1 (stereo not shown) [Compound 125]"
reported_measurement = 20

[[record]]
compound = "O=C(N[C@H](COCc1ccccc1)C(=O)O)/C(=C\\c1ccc(Cl)c(Cl)c1)NC(=O)c1cc2ccccc2s1 [Compound 68]"
reported_measurement = 52


Task: Data request, read-out IC50, for Cc1ccccc1/C=C(/NC(=O)c1ccc(C(F)(F)F)cc1)C(=O)N[C@@H](CSCc1ccccc1)C(=O)O [Compound 138]
Output: 100

Task: Item: O=C(NC(Cc1ccc(Br)cc1)C(=O)O)/C(=C\c1cccc(C(F)(F)F)c1)NC(=O)c1ccc(-c2ccccc2)cc1 (stereo not shown) [Compound 60]
Output: 9.2
